# EXPERIMENT_NOTES: pKa estimate by comparison to olivetolic acid
# Assay type: physicochemical
# CONDITION: estimated by comparison to olivetolic acid; not reported
VALUE_TYPE: pKa

COMPOUND: C=C(C)[C@@H]1CCC(C)=C[C@H]1c1c(O)cc(CCCCC)c(C(=O)O)c1O [CBDA]
RESULT: ~3.4
